Test system: Bacillus subtilis
Assay: Antimicrobial activity against Bacillus subtilis ATCC 6633 after 24 hrs by MTT assay
Assay type: functional
Details: ATCC 6633, 24 h
readout.type: MIC50

Check out these entries, answers already filled in.
O=C1OCC(NCc2ccccc2)=C1c1ccc(Br)cc1 | > 100 µg/mL
O=C1OCC(NCc2ccccc2)=C1c1cccc(Cl)c1 | > 100 µg/mL
COc1ccc(C2=C(NCc3ccccc3)COC2=O)cc1OC | > 100 µg/mL
COc1ccc(C2=C(NCCN3CCOCC3)COC2=O)cc1OC | > 100 µg/mL
CCCCNC1=C(c2ccc(Br)cc2)C(=O)OC1 | > 100 µg/mL
O=C1OCC(NCCN2CCOCC2)=C1c1ccc(Br)cc1 | 24.7 µg/mL
O=C1OCC(N2CCOCC2)=C1c1ccc(Br)cc1 | 91.8 µg/mL
O=C1OCC(N2CCCC2)=C1c1ccc(Br)cc1 | 50 µg/mL

Q. Indicate its recorded MIC50; the compound in question is `COc1ccc(C2=C(N3CCNCC3)COC2=O)cc1OC`
A. > 100 µg/mL

Q. Indicate its recorded MIC50; the compound in question is `CN1CCN(C2=C(c3cccc(Cl)c3)C(=O)OC2)CC1`
A. > 100 µg/mL

Q. Indicate its recorded MIC50; the compound in question is `CCCCNC1=C(c2ccc(OC)c(OC)c2)C(=O)OC1`
A. > 100 µg/mL

Q. Indicate its recorded MIC50; the compound in question is `CCCNC1=C(c2cccc(Cl)c2)C(=O)OC1`
A. > 100 µg/mL

Q. Indicate its recorded MIC50; the compound in question is `O=C1OCC(N2CCOCC2)=C1c1cccc(Cl)c1`
A. 93.1 µg/mL

Q. Indicate its recorded MIC50; the compound in question is `O=C1OCC(NC2CCCCC2)=C1c1ccc(Br)cc1`
A. 86.7 µg/mL

====

Each item that follows carries a reported MIC50.
Test system: Bacillus subtilis
Assay: Antimicrobial activity against Bacillus subtilis ATCC 6633 after 24 hrs by MTT assay
Type: functional
Settings: ATCC 6633, 24 h

Q. Indicate its recorded MIC50; the molecule in question is `CN(C)C1=C(c2cccc(Br)c2)C(=O)OC1`
A. > 100 µg/mL

Q. Indicate its recorded MIC50; the molecule in question is `CCCNC1=C(c2ccc(Br)cc2)C(=O)OC1`
A. > 100 µg/mL

====

Each item that follows carries a reported log10(MIC50).
Tested on: Bacillus subtilis
Assay: Antimicrobial activity against Bacillus subtilis ATCC 6633 after 24 hrs by MTT assay
Format: functional
Conditions: ATCC 6633, 24 h
In our notation, the value equals log10 of MIC50 in µg/mL.

O=C1OCC(NNc2ccc([N+](=O)[O-])cc2)=C1c1ccccc1 | 1.19

Let us move to another entry and its log10(MIC50).
Q. Indicate its recorded log10(MIC50); the compound in question is `O=C1OCC(N2CCCC2)=C1c1cccc(Cl)c1`
A. 1.94

====

Tested on: Bacillus subtilis
Experiment: Antimicrobial activity against Bacillus subtilis ATCC 6633 after 24 hrs by MTT assay
Format: functional
Details: ATCC 6633, 24 h
Each item that follows carries a reported MIC50.

O=C1OCC(N2CCCCC2)=C1c1ccc(Br)cc1 | > 100 µg/mL
CN(C)C1=C(c2ccc(Br)cc2)C(=O)OC1 | > 100 µg/mL
COc1ccc(C2=C(N3CCCC3)COC2=O)cc1OC | > 100 µg/mL
COc1ccc(C2=C(N3CCOCC3)COC2=O)cc1OC | > 100 µg/mL
O=C1OCC(N2CCCCC2)=C1c1cccc(Cl)c1 | 41.6 µg/mL

Q. Indicate its recorded MIC50; the molecule in question is `O=C1OCC(N2CCNCC2)=C1c1cccc(Cl)c1`
A. > 100 µg/mL

Q. Indicate its recorded MIC50; the molecule in question is `O=C1OCC(NCCN2CCOCC2)=C1c1cccc(Cl)c1`
A. 27.9 µg/mL

All figures here come from ChEMBL document CHEMBL1681754.
